# Tested System: T1, human LAG-3 (human, UniProt P18627 23-450, limits assumed)
# T1 construct: Selections used human LAG-3-Fc, human LAG-3-6His, a 30 aa LAG-3 peptide and/or cells with cynomolgus LAG-3; also called CD223
# T1 sequence (looked up): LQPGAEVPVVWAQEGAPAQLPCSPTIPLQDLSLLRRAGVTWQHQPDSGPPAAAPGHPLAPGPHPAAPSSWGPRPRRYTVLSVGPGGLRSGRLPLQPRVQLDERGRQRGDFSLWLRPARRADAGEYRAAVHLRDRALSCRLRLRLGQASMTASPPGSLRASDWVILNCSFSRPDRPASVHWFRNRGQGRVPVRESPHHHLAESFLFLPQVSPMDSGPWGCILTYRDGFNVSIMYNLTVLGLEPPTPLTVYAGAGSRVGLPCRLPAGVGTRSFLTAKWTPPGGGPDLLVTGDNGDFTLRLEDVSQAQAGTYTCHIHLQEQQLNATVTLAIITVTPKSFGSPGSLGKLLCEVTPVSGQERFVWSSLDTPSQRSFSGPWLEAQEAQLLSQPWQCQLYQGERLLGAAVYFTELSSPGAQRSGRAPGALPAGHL
# Test: Fab phage display selection; periplasmic extracts screened by ELISA or flow cytometry
Readout Kind: binding result

Using known records, supply binding result for P13F06 Fab (Fab, V domains shown, Murine Fab, periplasmic extract) VH: QVQLQQSGAELVKPGASVELSCTASGFNIRDTYMYWVKQRPEQGLEWIGRIDPANGNTKFDPKFQDRATMTADTSSNTAYLQLSSLTSEDTAVYYCTTYFYRYDVGGFDYWGQGTTLTVS VL: EILLTQSPALMAASPGEKVTITCSVSSSISSSNLHWYQQKSGTSPKLWIYGTSNLASGVPVRFSGSGSGTSYSLTISSMEAEDAATYYCQQWSSYPFTFGSGTKLEIK
binds

Identify binding result associated with the binder P13F09 Fab (Fab, V domains shown, Murine Fab, periplasmic extract) VH: QVQLQQSGAELVKPGASVKLSCTASGFNIKDNYIHWVKQRPEQGLEWIGSIDPANGNTKYDPKFQGKASITADTSSNTAYLQLSSLTSEGTAVYYCASYFYRYDVGGFDYWGQGTTLTVS VL: EIVLTQSPALMAASPGEKVTITCSVSSSISSSNLHWFQQKSGTSPKLWIYGTSNLASGVPVRFSGSGSGTSYSLTISSMEAEDAATYYCQQWSSYPFTFGSGTKLEIK
binds

Dear colleague, please send me the reported binding result for P13D05 Fab (Fab, V domains shown, Murine Fab, periplasmic extract) VH: QVQLQQPGAELVKPGASVELSCTASGFNIRDTYMYWVKQRPEQGLGWIGRIDPANGNTKFDPKFQDRATMTADTSSNTAYLQLSSLTSEDTAVYYCTTYFYRYDVGGFDYWGQGTTLTVS VL: EIVLTQSPALMAASPGEKVTITCSVSSSISSSNLHWFRQKSGTSPKLWIYGTSNLASGVPVRFSGSGSGTSYSLTISSMEAEDAATYYCQQWSSYPFTFGSGTKLEIK when you can.
binds
